Values were extracted from ChEMBL document CHEMBL1125867.

# protocol notes: Compound was evaluated for cell growth inhibition of human (WI-L2) leukemic cells.
# Format: functional, cell-based
# assay context: WIL2
property name: pIC50
Friendly reminder that pIC50 comes from taking -log10 of the concentration in mol/L.

Given Nc1nc(N)c2nc(CNc3ccc(C(=O)N[C@@H](CCC(=O)O)C(=O)O)cc3)cnc2n1 [AMINOPTERIN] , state its recorded pIC50.
8.15
